Consider the following compounds; for each one, report its IC50.
test system: human PDE5 (Homo sapiens, UniProt O76074)
Construct: from tissue; host or cells: human platelets from fresh donor blood (10,000 g supernatant of sonicated platelets)
method notes: Inhibition of PDE5 activity (SPA, [3H]cGMP, platelet lysate)
Assay type: biochemical
condition info: PDE5 from human platelet lysate; values given as bins; read-out: PDE5A inhibitory values measured as −logIC50 (converted)

So the reported IC50 for CCOc1cc2c(cc1OC)C(c1ccc(C(=O)N3CCC(n4c(=O)c5sc(-c6ccc(F)c(F)c6)cc5n(Cc5nc(CC)no5)c4=O)CC3)cc1)=N[C@@H]1CCSC[C@H]21 , on human PDE5 (Homo sapiens, UniProt O76074), turned out to be < 0.01 µM

Tested on human PDE5 (Homo sapiens, UniProt O76074): CCOc1cc2c(cc1OC)C(c1ccc(C(=O)N3CCC(n4c(=O)c5sc(-c6ccccc6)cc5n(Cc5nc(CC)co5)c4=O)CC3)cc1)=N[C@@H]1CCSC[C@H]21 . Observed IC50: 0.01 to 0.1 µM

Let me check: CCOc1cc2c(cc1OC)C(c1ccc(C(=O)N3CCC(n4c(=O)c5sc(-c6ccccc6)cc5n(Cc5cnn(CC)c5)c4=O)CC3)cc1)=N[C@@H]1CCSC[C@H]21 , system human PDE5 (Homo sapiens, UniProt O76074), measured IC50 is > 0.1 µM

Query CCOc1cc2c(cc1OC)C(c1ccc(C(=O)N3CCC(n4c(=O)c5sc(-c6ccccc6)cc5n(Cc5ocnc5C)c4=O)CC3)cc1)=N[C@@H]1CCSC[C@H]21 on human PDE5 (Homo sapiens, UniProt O76074); IC50 returned: > 0.1 µM

# input for lookup
Observed IC50 on human PDE5 (Homo sapiens, UniProt O76074), entry CCOc1cc2c(cc1OC)C(c1ccc(C(=O)N3CCC(n4c(=O)c5sc(-c6ccccc6)cc5n(Cc5sccc5C)c4=O)CC3)cc1)=N[C@@H]1CCSC[C@H]21 , equals > 0.1 µM
